# measured-on: Glucocorticoid receptor (Homo sapiens) (UniProt P04150)
# Sequence (P04150 whole entry): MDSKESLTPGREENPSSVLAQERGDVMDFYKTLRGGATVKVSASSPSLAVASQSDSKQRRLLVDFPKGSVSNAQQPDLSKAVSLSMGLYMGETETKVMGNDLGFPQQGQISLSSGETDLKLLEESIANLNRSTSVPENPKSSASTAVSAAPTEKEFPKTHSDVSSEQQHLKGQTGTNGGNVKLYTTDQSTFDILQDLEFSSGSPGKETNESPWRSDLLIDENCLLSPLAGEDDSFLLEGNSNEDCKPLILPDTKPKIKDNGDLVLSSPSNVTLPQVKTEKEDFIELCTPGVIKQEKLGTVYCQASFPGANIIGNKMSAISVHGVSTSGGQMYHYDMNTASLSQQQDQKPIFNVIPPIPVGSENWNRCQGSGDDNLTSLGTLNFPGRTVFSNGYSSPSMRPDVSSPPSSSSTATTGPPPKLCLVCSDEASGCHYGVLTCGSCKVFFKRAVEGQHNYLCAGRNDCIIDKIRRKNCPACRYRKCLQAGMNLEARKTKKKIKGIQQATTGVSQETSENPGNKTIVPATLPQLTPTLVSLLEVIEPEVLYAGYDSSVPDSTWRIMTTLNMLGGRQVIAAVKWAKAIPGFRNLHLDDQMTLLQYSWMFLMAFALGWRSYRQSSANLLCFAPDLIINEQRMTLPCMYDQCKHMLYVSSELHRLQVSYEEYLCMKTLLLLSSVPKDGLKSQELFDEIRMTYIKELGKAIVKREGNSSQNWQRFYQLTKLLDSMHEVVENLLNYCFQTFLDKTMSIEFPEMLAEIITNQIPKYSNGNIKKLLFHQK
# run-description: Agonist activity at glucocorticoid receptor in human foreskin fibroblasts assessed as IL-1-mediated IL-6 synthesis at […] after 24 hrs relative to dexamethasone
Listed here are compounds together with their documented Emax.
Numeric answer only, unit % assumed.

# compound, units-text, observed-value
records = [
    ("CCC(Cc1ccc2ccccc2c1)NS(=O)(=O)c1c(C)cc(C)cc1C (stereo not given)", "%", 0),
]

Exercise: # lookup: Emax of CCC(Cc1ccccc1C)NS(=O)(=O)c1c(C)cc(C)cc1C (stereo not given)
Solution: 0

Exercise: Emax lookup needed for CCC(Cc1cc(C)cc(C)c1)NS(=O)(=O)c1c(C)cc(C)cc1C (stereo not given) , thanks.
Solution: 36

Exercise: Please report the recorded Emax for CC[C@@H](Cc1ccc(O)c(C)c1C)NS(=O)(=O)c1c(C)cc(C)cc1C .
Solution: 77

Exercise: Requested field: Emax. Item: CCC(Cc1cc(Cl)cc(Cl)c1)NS(=O)(=O)c1c(C)cc(C)cc1C (stereo not given)
Solution: 0

Exercise: Quick one: Emax for CCC(Cc1cc(C)c(O)c(C)c1)NS(=O)(=O)c1c(C)cc(C)cc1C (stereo not given) ?
Solution: 58

Exercise: Suppose we examine the compound CCC(Cc1ccc(C)cc1)NS(=O)(=O)c1c(C)cc(C)cc1C (stereo not given) ; what Emax value has been reported?
Solution: 0

Exercise: So what does the record say about Emax for CC[C@@H](Cc1ccc(O)cc1)NS(=O)(=O)c1c(C)cc(C)cc1C ?
Solution: 0

Exercise: Fill blank: measured Emax of the compound CCC(Cc1cc(C)ccc1C)NS(=O)(=O)c1c(C)cc(C)cc1C (stereo not given) is ____.
Solution: 0

Exercise: Fill blank: measured Emax of the compound CCC(Cc1cccc(C)c1C)NS(=O)(=O)c1c(C)cc(C)cc1C (stereo not given) is ____.
Solution: 19

###

# measured-on: Progesterone receptor (Homo sapiens, UniProt P06401)
# Sequence (P06401 whole entry): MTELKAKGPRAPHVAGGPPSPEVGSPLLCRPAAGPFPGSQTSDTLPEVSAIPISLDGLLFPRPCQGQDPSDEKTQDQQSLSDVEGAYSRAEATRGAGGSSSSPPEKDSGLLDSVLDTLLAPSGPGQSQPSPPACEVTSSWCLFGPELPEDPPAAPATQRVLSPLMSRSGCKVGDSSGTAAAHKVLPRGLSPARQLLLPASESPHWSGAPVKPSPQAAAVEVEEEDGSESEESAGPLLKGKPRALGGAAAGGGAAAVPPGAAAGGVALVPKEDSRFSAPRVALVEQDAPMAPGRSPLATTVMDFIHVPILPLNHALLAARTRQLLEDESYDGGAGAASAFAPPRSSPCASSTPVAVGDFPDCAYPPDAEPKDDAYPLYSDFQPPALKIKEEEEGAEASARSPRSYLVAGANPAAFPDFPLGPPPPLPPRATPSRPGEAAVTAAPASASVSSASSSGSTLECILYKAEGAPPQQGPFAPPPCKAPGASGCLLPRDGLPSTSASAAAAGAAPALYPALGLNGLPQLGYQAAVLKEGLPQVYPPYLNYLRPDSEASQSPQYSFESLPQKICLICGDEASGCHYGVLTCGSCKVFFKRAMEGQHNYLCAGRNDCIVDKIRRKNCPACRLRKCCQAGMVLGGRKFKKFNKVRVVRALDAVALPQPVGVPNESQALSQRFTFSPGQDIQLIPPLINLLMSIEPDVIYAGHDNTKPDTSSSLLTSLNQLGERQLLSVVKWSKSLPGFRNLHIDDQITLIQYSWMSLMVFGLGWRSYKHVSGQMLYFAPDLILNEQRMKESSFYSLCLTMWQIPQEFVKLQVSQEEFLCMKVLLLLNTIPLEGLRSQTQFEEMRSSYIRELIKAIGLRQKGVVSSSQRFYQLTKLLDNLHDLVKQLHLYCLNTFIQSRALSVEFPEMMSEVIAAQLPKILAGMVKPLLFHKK
Each entry below lists one item and its recorded IC50 value.
All answers are understood in µM, so give the number only.

Worked examples follow.
# compound, IC50 (µM)
records = [
    ("CCC(Cc1ccc(C)cc1C)NS(=O)(=O)c1c(C)cc(C)cc1C (stereo not drawn)", 8.2),
    ("CC[C@@H](Cc1ccc(O)c(C)c1)NS(=O)(=O)c1c(C)cc(C)cc1C", 2.5),
    ("CCC(Cc1ccc(OC)c(C)c1C)NS(=O)(=O)c1c(C)cc(C)cc1C (stereo not drawn)", 2.1),
]

Exercise: Sample CC[C@@H](Cc1ccc(O)cc1C)NS(=O)(=O)c1c(C)cc(C)cc1C — what was its IC50?
Solution: 2.8

Exercise: May I ask what IC50 has been recorded for CCC(Cc1cccc(C)c1)NS(=O)(=O)c1c(C)cc(C)cc1C (stereo not drawn) ?
Solution: 5.5

Exercise: Item CCC(Cc1ccc(C)cc1)NS(=O)(=O)c1c(C)cc(C)cc1C (stereo not drawn) has what recorded IC50?
Solution: 3.4

Exercise: Which IC50 is listed for CCC(Cc1ccc2ccccc2c1)NS(=O)(=O)c1c(C)cc(C)cc1C (stereo not drawn) ?
Solution: 0.72

###

# measured-on: Glucocorticoid receptor (Homo sapiens)
# Sequence (P04150 whole entry): as the sequence (P04150 whole entry) above
# run-description: Agonist activity at glucocorticoid receptor in human foreskin fibroblasts assessed as IL-1-mediated IL-6 synthesis at […] after 24 hrs relative to dexamethasone
attribute-measured: Emax (%)
Your answer should be a plain number; it is taken to be in %.

In the examples that follow, each entry is paired with its recorded Emax.
# molecule, measured-on, Emax, %
rows = [
    ("CCC(Cc1ccc(O)c2ccccc12)NS(=O)(=O)c1c(C)cc(C)cc1C (stereo unspecified)", "Glucocorticoid receptor (Homo sapiens)", 80),
    ("CCC(Cc1cc(C)c(OC)c(C)c1)NS(=O)(=O)c1c(C)cc(C)cc1C (stereo unspecified)", "Glucocorticoid receptor (Homo sapiens)", 0),
]

Exercise: GET /values?readout=Emax&system=Glucocorticoid receptor (Homo sapiens)&item= CC[C@@H](Cc1ccc(O)cc1C)NS(=O)(=O)c1c(C)cc(C)cc1C
Solution: 0

Exercise: Query for Glucocorticoid receptor (Homo sapiens): what Emax does the record show for CCC(Cc1c(C)cccc1C)NS(=O)(=O)c1c(C)cc(C)cc1C (stereo unspecified) ?
Solution: 0

Exercise: Record lookup: for Glucocorticoid receptor (Homo sapiens), what Emax belongs to CCC(Cc1ccc(OC)c(C)c1C)NS(=O)(=O)c1c(C)cc(C)cc1C (stereo unspecified) ?
Solution: 0

Exercise: Return Emax measured with Glucocorticoid receptor (Homo sapiens) given this molecule: CCC(Cc1cccc(C)c1)NS(=O)(=O)c1c(C)cc(C)cc1C (stereo unspecified)
Solution: 0

Exercise: I'm curious: which Emax was measured for CCC(Cc1ccc(O)c(C)c1C)NS(=O)(=O)c1c(C)cc(C)cc1C (racemic) tested on Glucocorticoid receptor (Homo sapiens)?
Solution: 81

Exercise: State its Emax on Glucocorticoid receptor (Homo sapiens): CCC(Cc1cccc2ccccc12)NS(=O)(=O)c1c(C)cc(C)cc1C (stereo unspecified)
Solution: 0

Exercise: For the record CCC(Cc1cc(F)cc(F)c1)NS(=O)(=O)c1c(C)cc(C)cc1C (stereo unspecified) , what value of Emax is listed for Glucocorticoid receptor (Homo sapiens)?
Solution: 0

Exercise: Enter reported Emax observed with Glucocorticoid receptor (Homo sapiens) for CC[C@@H](Cc1ccc(O)c(C)c1)NS(=O)(=O)c1c(C)cc(C)cc1C
Solution: 0

Exercise: Form field - read-out: Emax; system: Glucocorticoid receptor (Homo sapiens); submitted item: CCC(Cc1ccc(C)cc1C)NS(=O)(=O)c1c(C)cc(C)cc1C (stereo unspecified)
Solution: 0

###

# measured-on: Glucocorticoid receptor (Homo sapiens)
# run-description: Inhibition of glucocorticoid receptor (unknown origin) expressed in baculovirus-infected insect cells by fluorescence polarization assay
This listing pairs compounds with measured IC50.
State just the number; it will be interpreted in nM.

# compound, units-text, observed-value
rows = [
    ("CCC(Cc1cc(C)cc(C)c1)NS(=O)(=O)c1c(C)cc(C)cc1C (stereo unspecified)", "nM", 11),
    ("CCC(Cc1cc(F)cc(F)c1)NS(=O)(=O)c1c(C)cc(C)cc1C (stereo unspecified)", "nM", 48),
    ("CCC(Cc1ccc(O)c2ccccc12)NS(=O)(=O)c1c(C)cc(C)cc1C (stereo unspecified)", "nM", 3),
    ("CCC(Cc1ccccc1C)NS(=O)(=O)c1c(C)cc(C)cc1C (stereo unspecified)", "nM", 83),
]

Exercise: Quick check: IC50 on Glucocorticoid receptor (Homo sapiens), item CCC(Cc1cc(Cl)cc(Cl)c1)NS(=O)(=O)c1c(C)cc(C)cc1C (stereo unspecified) ?
Solution: 10

Exercise: Observed IC50 on Glucocorticoid receptor (Homo sapiens) for CCC(Cc1ccc2ccccc2c1)NS(=O)(=O)c1c(C)cc(C)cc1C (stereo unspecified) , please.
Solution: 78

###

# measured-on: UniProt P04150
# run-description: Agonist activity at glucocorticoid receptor in human foreskin fibroblasts assessed as IL-1-mediated IL-6 synthesis after 24 hrs
pIC50: −log10 of the molar value.
List of pIC50 values.

# compound, observed-value
rows = [
    ("CCC(Cc1c(C)cccc1C)NS(=O)(=O)c1c(C)cc(C)cc1C (stereo unspecified)", "< 5.00"),
    ("CCC(Cc1cc(C)ccc1C)NS(=O)(=O)c1c(C)cc(C)cc1C (stereo unspecified)", "< 5.00"),
    ("CCC(Cc1ccc(OC)c(C)c1C)NS(=O)(=O)c1c(C)cc(C)cc1C (stereo unspecified)", "< 5.70"),
    ("CCC(Cc1cc(C)c(O)c(C)c1)NS(=O)(=O)c1c(C)cc(C)cc1C (stereo unspecified)", 7.05),
    ("CCC(Cc1ccc(O)c(C)c1C)NS(=O)(=O)c1c(C)cc(C)cc1C (racemic)", 7.82),
]

Exercise: Using the record for CCC(Cc1ccccc1C)NS(=O)(=O)c1c(C)cc(C)cc1C (stereo unspecified) , report its pIC50.
Solution: < 5.00

Exercise: Name the reported pIC50 value associated with the compound CCC(Cc1ccc2ccccc2c1)NS(=O)(=O)c1c(C)cc(C)cc1C (stereo unspecified)
Solution: < 5.00

Exercise: Entry CC[C@@H](Cc1ccc(O)cc1C)NS(=O)(=O)c1c(C)cc(C)cc1C : reported pIC50 = ?
Solution: < 5.70

Exercise: What value of pIC50 has been reported for the following compound? CCC(Cc1cccc2ccccc12)NS(=O)(=O)c1c(C)cc(C)cc1C (stereo unspecified)
Solution: < 5.00

Exercise: Need pIC50 of CC[C@@H](Cc1ccc(O)cc1)NS(=O)(=O)c1c(C)cc(C)cc1C , thanks.
Solution: < 5.70

Exercise: Return reported pIC50; argument: CCC(Cc1cc(C)cc(C)c1)NS(=O)(=O)c1c(C)cc(C)cc1C (stereo unspecified)
Solution: < 5.00
